Target: T1, human TGFβ2, mature receptor-binding domain (human, UniProt P09858 303-414 (pig entry), The mature TGFβ2 is a disulfide-linked homodimer of this 112-residue chain. The 4A11 epitope spans both monomers (p-1207).)
T1 sequence: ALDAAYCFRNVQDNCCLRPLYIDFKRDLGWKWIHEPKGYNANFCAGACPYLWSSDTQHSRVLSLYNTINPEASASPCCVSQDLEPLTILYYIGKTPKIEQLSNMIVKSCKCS
Assay: cell-based or functional assay
Each record here notes measured HEKBlue TGFβ blocking IC50.

[
  {
    "Binder": "h4A11.v2 (antibody, human IgG1, kappa, N297G, V domains shown) VH: EQQLVESGGGLVQPGGSLRLSCAVSGFSLSSYTVNWVRQAPGKGLEWIGYISYGGSAYYASWANGRFTISKDSAKNSVYLQMNSLRAEDTAVYFCARHMQVGGAPTGSMAAFDPWGPGTLVTVSS VL: DAQLTQSPSSLSASVGDRVTITCQSSQSVYNNNYLSWFQQKPGKPPKLLIYGASTLTSGVPSRFSGSGSGTDFTLTISSLQPEDFATYYCAGGYSGSSDKYAFGGGTKVEIKR",
    "Cmp": ">",
    "HEKBlue TGFβ blocking IC50 (nM)": 200
  },
  {
    "Binder": "h4A11.v4 (antibody, human IgG1, kappa, N297G, V domains shown) VH: EQQLQESGPGLVKPSETLSLTCTVTGFSLSSYTVNWVRQPAGKGLEWIGYISYGGSAYYASWANGRFTISKDSSKNQVSLKLSSVTAADTAVYFCARHMQVGGAPTGSMAAFDPWGPGTLVTVSS VL: DAQLTQSPSSLSASVGDRVTITCQSSQSVYNNNYLSWFQQKPGKPPKLLIYGASTLTSGVPSRFSGSGSGTDFTLTISSLQPEDFATYYCAGGYSGSSDKYAFGGGTKVEIKR",
    "Cmp": "=",
    "HEKBlue TGFβ blocking IC50 (nM)": 1.9
  },
  {
    "Binder": "4A11 (antibody, V domains shown, anti-TGFβ2/3, recombinant rabbit monoclonal; some paragraphs print the H/L pair as 32/33; also called Rb1.4A11; Rbt 4A11) VH: QSLEESGGRLVTPGTPLTLTCTVSGFSLSSYTVNWVRQAPGKGLEWIGYISYGGSAYYASWANGRFTISKTSATVDLKITSPTTEDTATYFCARHMQVGGAPTGSMAAFDPWGPGTLVTVSS VL: AAVLTQTPSPVSAAVGGTVSISCQSSQSVYNNNYLSWFQQKPGQPPKLLIYGASTLTSGVPSRFKGSGSGTQFTLTISDVQCDDAATYYCAGGYSGSSDKYAFGGGTEVVVKG",
    "Cmp": "=",
    "HEKBlue TGFβ blocking IC50 (nM)": 0.09
  }
]
